Assay Notes: NCI Yeast Anticancer Drug Screen. Data for the sgs1 mgt1 strain (AID 161);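 note: 0% = growth of cultures given vehicle only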
Measurement Conditions: S. cerevisiae sgs1 mgt1 strain, at 50.0 µM, hits give high values
About 79,000 compounds went through this panel and 15% of them were active in at least one assay; those are over-represented in the sample as a whole.
Property: growth inhibition; scope: individual compounds
Output spec: scalar in %, unitless text.

Record excerpt, results attached:
>>> measured("COC(=O)CCCCC1=CCC2C(=O)C=C(O)C2C1 (centres undefined)")
-11.2
>>> measured("CCOC(=O)C(=O)C=P(c1ccccc1)(c1ccccc1)c1ccccc1")
-21.9
>>> measured("N#CCCc1ccc(O)cc1")
-34.9
>>> measured("Cc1cc(OCCO)cc(C)c1Cl")
-16.4
>>> measured("CN(C)c1ccc(CNC(C(=O)c2ccccc2)c2ccccc2)cc1 (centres undefined)")
-15.6

[Q] Need growth inhibition, item O=c1[nH]n(-c2ccccc2)c(=O)cc1Cl
[A] -4

[Q] I am curious: what growth inhibition value has been reported for Cc1ccc(Cl)cc1NC(=O)N(C)CCO ?
[A] 9.9

[Q] # query: growth inhibition of entry O=[N+]([O-])c1ccccc1S(=O)c1ccccc1[N+](=O)[O-]
[A] 34.3
